assay: physchem; details: pH 7.4, aqueous buffer
quantity_measured: solubility

Inquiry: Report solubility for Ac-DWFKAFYDKVAEKFKEAF-NH2 [peptide 4F, reference compound] please.
Reply text: ~1000 µg/mL
